molecular target: Human Cav 2.2 channels (Homo sapiens, UniProt Q00975); assay: Fluorescent assay for CaV2.2 channels using potassium depolarization (VIPR/FLIPR); type: cell-based; settings: FLIPR data; ratio closed/inactivated IC50
Sequence (Q00975 whole entry): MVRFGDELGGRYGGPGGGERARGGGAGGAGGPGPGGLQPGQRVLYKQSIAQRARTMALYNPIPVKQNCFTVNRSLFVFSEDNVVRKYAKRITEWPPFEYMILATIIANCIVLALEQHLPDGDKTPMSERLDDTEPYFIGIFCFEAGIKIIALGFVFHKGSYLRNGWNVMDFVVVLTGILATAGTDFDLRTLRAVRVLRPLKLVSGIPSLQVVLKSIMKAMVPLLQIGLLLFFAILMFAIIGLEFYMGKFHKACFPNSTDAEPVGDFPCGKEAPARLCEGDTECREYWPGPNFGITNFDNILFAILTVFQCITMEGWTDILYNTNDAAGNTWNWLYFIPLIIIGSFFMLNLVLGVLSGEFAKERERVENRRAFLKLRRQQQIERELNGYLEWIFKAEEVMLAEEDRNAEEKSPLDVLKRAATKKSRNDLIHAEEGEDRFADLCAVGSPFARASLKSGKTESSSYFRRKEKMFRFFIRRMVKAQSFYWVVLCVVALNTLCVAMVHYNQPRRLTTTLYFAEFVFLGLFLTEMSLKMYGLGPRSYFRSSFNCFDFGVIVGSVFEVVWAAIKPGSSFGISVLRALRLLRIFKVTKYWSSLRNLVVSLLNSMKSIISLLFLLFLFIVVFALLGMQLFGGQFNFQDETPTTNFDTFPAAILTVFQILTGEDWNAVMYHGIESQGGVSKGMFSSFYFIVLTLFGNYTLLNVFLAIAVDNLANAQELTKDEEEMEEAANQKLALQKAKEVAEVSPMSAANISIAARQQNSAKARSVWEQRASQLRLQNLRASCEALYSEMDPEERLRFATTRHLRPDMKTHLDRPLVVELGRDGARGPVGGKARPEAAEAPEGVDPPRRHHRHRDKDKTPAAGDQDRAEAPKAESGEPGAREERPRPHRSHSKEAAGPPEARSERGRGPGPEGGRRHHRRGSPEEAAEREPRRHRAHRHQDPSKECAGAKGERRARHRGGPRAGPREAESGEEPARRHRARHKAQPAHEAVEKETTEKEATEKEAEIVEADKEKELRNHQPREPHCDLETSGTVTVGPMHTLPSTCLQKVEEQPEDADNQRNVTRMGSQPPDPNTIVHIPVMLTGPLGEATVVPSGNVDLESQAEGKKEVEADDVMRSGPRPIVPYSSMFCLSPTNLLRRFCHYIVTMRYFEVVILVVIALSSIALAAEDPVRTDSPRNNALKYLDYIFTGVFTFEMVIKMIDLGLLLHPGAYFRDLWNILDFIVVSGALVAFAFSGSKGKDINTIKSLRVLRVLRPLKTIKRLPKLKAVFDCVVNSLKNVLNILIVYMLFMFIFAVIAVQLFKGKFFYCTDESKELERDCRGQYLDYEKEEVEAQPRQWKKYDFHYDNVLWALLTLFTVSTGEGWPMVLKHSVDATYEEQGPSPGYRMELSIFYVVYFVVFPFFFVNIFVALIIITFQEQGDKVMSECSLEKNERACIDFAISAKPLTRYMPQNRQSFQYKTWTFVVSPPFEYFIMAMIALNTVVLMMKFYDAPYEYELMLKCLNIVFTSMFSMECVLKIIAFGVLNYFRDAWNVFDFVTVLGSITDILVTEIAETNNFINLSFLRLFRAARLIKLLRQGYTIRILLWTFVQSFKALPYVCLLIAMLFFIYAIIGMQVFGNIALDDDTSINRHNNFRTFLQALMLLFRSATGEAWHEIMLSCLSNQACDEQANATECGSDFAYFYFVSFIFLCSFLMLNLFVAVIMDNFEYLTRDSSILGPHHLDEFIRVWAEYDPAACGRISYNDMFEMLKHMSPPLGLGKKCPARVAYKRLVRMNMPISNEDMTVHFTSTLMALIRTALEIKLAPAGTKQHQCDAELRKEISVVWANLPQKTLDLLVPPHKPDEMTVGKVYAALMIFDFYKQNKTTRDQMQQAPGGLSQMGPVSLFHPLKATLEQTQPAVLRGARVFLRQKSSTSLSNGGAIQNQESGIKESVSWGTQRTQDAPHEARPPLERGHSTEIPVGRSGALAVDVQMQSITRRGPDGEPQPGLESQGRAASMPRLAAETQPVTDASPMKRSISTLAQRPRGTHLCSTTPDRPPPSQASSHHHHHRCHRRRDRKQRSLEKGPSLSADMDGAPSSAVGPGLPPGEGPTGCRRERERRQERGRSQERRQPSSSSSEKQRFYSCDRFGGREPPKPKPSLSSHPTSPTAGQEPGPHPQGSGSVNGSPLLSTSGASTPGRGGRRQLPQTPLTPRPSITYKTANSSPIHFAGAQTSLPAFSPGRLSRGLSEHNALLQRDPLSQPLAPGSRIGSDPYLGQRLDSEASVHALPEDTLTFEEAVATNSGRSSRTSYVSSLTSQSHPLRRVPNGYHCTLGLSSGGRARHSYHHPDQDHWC
Sequence (P54289 25-1103 partner): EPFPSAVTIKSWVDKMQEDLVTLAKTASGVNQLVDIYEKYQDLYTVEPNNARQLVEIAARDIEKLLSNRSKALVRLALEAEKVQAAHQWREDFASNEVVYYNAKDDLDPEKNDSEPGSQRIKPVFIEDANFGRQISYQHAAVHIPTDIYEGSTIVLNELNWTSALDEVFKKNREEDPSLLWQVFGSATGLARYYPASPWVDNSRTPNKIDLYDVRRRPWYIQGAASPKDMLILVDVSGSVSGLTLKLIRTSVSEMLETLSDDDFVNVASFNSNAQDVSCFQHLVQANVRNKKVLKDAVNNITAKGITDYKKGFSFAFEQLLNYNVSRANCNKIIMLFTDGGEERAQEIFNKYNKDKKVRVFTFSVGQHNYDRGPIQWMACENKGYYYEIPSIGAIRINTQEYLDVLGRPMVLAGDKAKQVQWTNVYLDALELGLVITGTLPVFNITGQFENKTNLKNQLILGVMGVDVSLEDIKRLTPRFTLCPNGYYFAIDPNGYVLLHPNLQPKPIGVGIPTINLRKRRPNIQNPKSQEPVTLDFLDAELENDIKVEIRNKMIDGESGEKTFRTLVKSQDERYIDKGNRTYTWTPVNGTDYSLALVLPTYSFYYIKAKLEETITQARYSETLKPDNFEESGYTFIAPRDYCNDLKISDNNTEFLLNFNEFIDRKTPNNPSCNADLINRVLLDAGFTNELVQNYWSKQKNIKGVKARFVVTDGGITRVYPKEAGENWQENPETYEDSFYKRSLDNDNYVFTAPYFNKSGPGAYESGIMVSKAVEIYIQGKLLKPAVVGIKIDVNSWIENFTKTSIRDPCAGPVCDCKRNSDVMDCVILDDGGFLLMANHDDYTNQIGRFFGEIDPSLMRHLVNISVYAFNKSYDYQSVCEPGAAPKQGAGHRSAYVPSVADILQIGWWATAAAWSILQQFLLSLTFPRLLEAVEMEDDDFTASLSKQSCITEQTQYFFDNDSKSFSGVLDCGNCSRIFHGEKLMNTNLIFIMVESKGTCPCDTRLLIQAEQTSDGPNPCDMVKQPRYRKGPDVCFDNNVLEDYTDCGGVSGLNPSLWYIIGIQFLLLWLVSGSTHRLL
Sequence (P54284 whole entry partner): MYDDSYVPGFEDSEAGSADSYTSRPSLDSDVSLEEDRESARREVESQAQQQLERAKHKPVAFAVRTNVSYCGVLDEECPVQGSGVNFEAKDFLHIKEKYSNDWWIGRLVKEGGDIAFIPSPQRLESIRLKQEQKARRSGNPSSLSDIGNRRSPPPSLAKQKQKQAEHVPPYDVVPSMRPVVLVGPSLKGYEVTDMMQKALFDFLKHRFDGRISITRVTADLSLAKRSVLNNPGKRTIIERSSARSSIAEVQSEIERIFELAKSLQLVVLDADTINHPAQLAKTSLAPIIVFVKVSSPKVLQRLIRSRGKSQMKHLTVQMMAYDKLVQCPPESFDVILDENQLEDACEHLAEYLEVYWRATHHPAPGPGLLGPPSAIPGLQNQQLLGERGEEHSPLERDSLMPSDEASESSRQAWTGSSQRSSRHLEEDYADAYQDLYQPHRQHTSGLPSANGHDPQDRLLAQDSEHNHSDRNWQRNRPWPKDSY
endpoint: CAv2.2 IC50 Ratio closed/inact.
Response field accepts a number only; no unit should be typed.

Examples with answers:
molecule | endpoint | quantitative.readout
CC(C)([C@H]1C[C@@H](NS(=O)(=O)c2ccc(C(F)(F)F)nc2)C1)S(=O)(=O)c1cccc(C(F)(F)F)c1 [Compound 629] | CAv2.2 IC50 Ratio closed/inact. | 17.3
CC(C)S(=O)(=O)c1cc(C(F)(F)F)cnc1C(=O)N[C@H]1C[C@H](CC(C)(C)S(=O)(=O)c2cccc(C(F)(F)F)c2)C1 [Compound 716] | CAv2.2 IC50 Ratio closed/inact. | 27.5

Lab note: need CAv2.2 IC50 Ratio closed/inact. for CC(C)([C@H]1C[C@@H](NC(=O)c2ccc(OCC(F)(F)F)nc2)C1)S(=O)(=O)c1cccc(C(F)(F)F)c1 [Compound 582] on Human Cav 2.2 channels (Homo sapiens, UniProt Q00975), anyone have it? 15.2

Form entry - test system: Human Cav 2.2 channels (Homo sapiens, UniProt Q00975); read-out: CAv2.2 IC50 Ratio closed/inact.; molecule: CC(C)([C@H]1C[C@@H](NC(=O)c2ccnc(C(F)(F)F)n2)C1)S(=O)(=O)c1cccc(OC(F)(F)F)c1 [Compound 642] 4.9

Report CAv2.2 IC50 Ratio closed/inact. for CC(C)([C@H]1C[C@H](NC(=O)c2cncc(C(F)(F)F)c2)C1)S(=O)(=O)c1cccc(C(F)(F)F)c1 [Compound 671] tested on Human Cav 2.2 channels (Homo sapiens, UniProt Q00975). 19.5

Can you look up CAv2.2 IC50 Ratio closed/inact. on Human Cav 2.2 channels (Homo sapiens, UniProt Q00975) for CC(C)(C[C@H]1C[C@H](NC(=O)CC2(N)CCCCC2)C1)S(=O)(=O)c1cccc(C(F)(F)F)c1 [Compound 726] ? 3.1

Just for reference, patent US20120245137A1 is where these values come from.
